Tested on: HEL
protocol_details: Cytotoxicity against human HEL cells assessed as cell growth inhibition by cell counting method
Format: cell-based
recorded_endpoint: CC50 (µM)
Just the number in µM, nothing appended.

CC(C)(NP(=O)(OCC(COP(=O)(NC(C)(C)C(=O)OCc1ccccc1)Oc1ccccc1)OCn1cnc2c(=O)[nH]c(N)nc21)Oc1ccccc1)C(=O)OCc1ccccc1 (configuration not stated) : 82
CCC(C)(C)COC(=O)[C@H](C)NP(=O)(OCC(CCn1cnc2c(OC)nc(N)nc21)COP(=O)(N[C@@H](C)C(=O)OCC(C)(C)CC)Oc1cccc2ccccc12)Oc1cccc2ccccc12 (some centres not stated) : 5
COC(=O)[C@H](C)NP(=O)(OCC(CO)CCn1cnc2c(OC)nc(N)nc21)Oc1cccc2ccccc12 (some centres not stated) : 37

Please turn your attention to the following entry.
QUERY: API: value(readout= CC50, system= HEL, query= CCCOC(=O)[C@H](C)NP(=O)(OCC(CO)CCn1cnc2c(OC)nc(N)nc21)Oc1cccc2ccccc12 (some centres not stated) )
RESULT: 14.4

* * *

Test system: Human immunodeficiency virus 1
protocol_details: Antiviral activity against HIV1 X4LAI.04 infected in human tonsillar tissues assessed as inhibition of virus-induced cytopathic effect by p24gag-based luminex assay
Format: functional
conditions: Human immunodeficiency virus 1, X4LAI.04
recorded_endpoint: EC50

QUERY: Give its EC50 value. Item: "Nc1nc(Cl)c2ncn(CCC(CO)CO)c2n1"
RESULT: > 60 µM

QUERY: Subsequent entry: "COc1nc(N)nc2c1ncn2CCC(CO)CO"
RESULT: > 30 µM

QUERY: Subsequent entry: C[C@H](NP(=O)(OCC(COP(=O)(N[C@@H](C)C(=O)OCc1ccccc1)Oc1ccccc1)SCn1cnc2c(=O)[nH]c(N)nc21)Oc1ccccc1)C(=O)OCc1ccccc1 (some centres undefined)
RESULT: > 3 µM

QUERY: Subsequent entry: C[C@H](NP(=O)(OCC(CO)CCn1cnc2c(=O)[nH]c(N)nc21)Oc1ccccc1)C(=O)OCc1ccccc1 (some centres undefined)
RESULT: > 20 µM

* * *

Each entry below carries its reported CC50.
System: CCRF-CEM
protocol_details: Cytostatic activity human CEM cells assessed as reduction in cell viability after 72 hrs by cell counting method
Assay type: cell-based
conditions: ccrf-cem, 72 h
Just the number in µM, nothing appended.

C[C@H](NP(=O)(OCC(CO)CCn1cnc2c(Cl)nc(N)nc21)Oc1ccccc1)C(=O)OCc1ccccc1 (mixture of isomers) : 33
CC(C)(NP(=O)(OCC(CCn1cnc2c(=O)[nH]c(N)nc21)COP(=O)(NC(C)(C)C(=O)OCc1ccccc1)Oc1ccccc1)Oc1ccccc1)C(=O)OCc1ccccc1 (stereo unspecified) : 100

Please turn your attention to the following entry.
QUERY: Give its CC50 value. Item: C[C@H](NP(=O)(OCC(CCn1cnc2c(=O)[nH]c(N)nc21)COP(=O)(N[C@@H](C)C(=O)OCc1ccccc1)Oc1ccccc1)Oc1ccccc1)C(=O)OCc1ccccc1 (stereo partly specified)
RESULT: 76

* * *

protocol_details: Cytotoxicity against human HEL cells assessed as alteration to cell morphology by microscopic analysis
Assay type: cell-based
Each entry below carries its reported MCC.

Reference set, count: 5
C[C@H](NP(=O)(OCC(CO)CCn1cnc2c(=O)[nH]c(N)nc21)Oc1cccc2ccccc12)C(=O)OCc1ccccc1 (some centres undefined) : 50 to 100 µM
C[C@H](NP(=O)(OCC(COP(=O)(N[C@@H](C)C(=O)OCc1ccccc1)Oc1ccccc1)OCn1cnc2c(=O)[nH]c(N)nc21)Oc1ccccc1)C(=O)OCc1ccccc1 (some centres undefined) : > 100 µM
CC(C)OC(=O)[C@H](C)NP(=O)(OCC(CO)OCn1cnc2c(=O)[nH]c(N)nc21)Oc1cccc2ccccc12 (some centres undefined) : > 100 µM
Nc1nc2c(ncn2CCC(CO)CO)c(=O)[nH]1 : > 100 µM
CC(C)(NP(=O)(OCC(CO)OCn1cnc2c(=O)[nH]c(N)nc21)Oc1cccc2ccccc12)C(=O)OCc1ccccc1 (centres undefined) : 50 to 100 µM

QUERY: Give its MCC value. Item: CC(C)(NP(=O)(OCC(CO)CCn1cnc2c(=O)[nH]c(N)nc21)Oc1cccc2ccccc12)C(=O)OCc1ccccc1 (centres undefined)
RESULT: 50 to 100 µM

QUERY: Subsequent entry: CCC(C)(C)COC(=O)[C@H](C)NP(=O)(OCC(CCn1cnc2c(OC)nc(N)nc21)COP(=O)(N[C@@H](C)C(=O)OCC(C)(C)CC)Oc1cccc2ccccc12)Oc1cccc2ccccc12 (some centres undefined)
RESULT: 50 to 100 µM

QUERY: Subsequent entry: COc1nc(N)nc2c1ncn2CCC(CO)COP(=O)(N[C@@H](C)C(=O)OCC(C)(C)C)Oc1cccc2ccccc12 (some centres undefined)
RESULT: 50 to 100 µM

QUERY: Subsequent entry: C[C@H](NP(=O)(OCC(CCn1cnc2c(=O)[nH]c(N)nc21)COP(=O)(N[C@@H](C)C(=O)OCc1ccccc1)Oc1ccccc1)Oc1ccccc1)C(=O)OCc1ccccc1 (some centres undefined)
RESULT: 50 to 100 µM
